Test system: P388 leukemia ip, CD2F1 mice, survival T/C
TEST_SUMMARY: NCI In Vivo Anticancer Drug Screen. Data for tumor model P388 Leukemia (intraperitoneal) in CD2F1 (CDF1) mice
DETAILS: endpoint: median survival time; dose: 50.0 mg/kg/injection; schedule: Q01DX009 (ip); vehicle: Klucel (hydroxypropylcellulose) (HPC); higher = longer survival
Inconclusive results and toxic doses are left out.
MEASURED_QUANTITY: T/C

compound="CC(C)N1CCC(OC(=O)Nc2ccccc2)C1 (configuration not stated)" result="100 % of control"

// below: T/C requested for another compound
input: Name the recorded T/C for CN(C)C(=S)S .
output: 102 % of control

* * *

Test system: P388 leukemia ip, CD2F1 mice, survival T/C
TEST_SUMMARY: NCI In Vivo Anticancer Drug Screen. Data for tumor model P388 Leukemia (intraperitoneal) in CD2F1 (CDF1) mice
DETAILS: endpoint: median survival time; dose: 200.0 mg/kg/injection; schedule: Q01DX009 (ip); vehicle: Klucel (hydroxypropylcellulose) (HPC)
Toxic doses and inconclusive results are not listed. How the source made its calls: active means survival T/C of 150% or more; inactive means T/C below 125% in these data.
Just give me one of these, please: active, inactive

// below: answered compounds
compound=NNC(=O)Cc1cc(=O)[nH][nH]1 class_assignment=inactive
compound=COc1ccc(C(=O)N2CC(O)=CC2=O)cc1 class_assignment=inactive
compound="ClC1=CCCC(C(Br)Br)C1 (configuration not stated)" class_assignment=inactive
compound=Cc1noc(-c2ccc([N+](=O)[O-])o2)n1 class_assignment=inactive
compound=CC(=O)C1=C(O)/C(=C\C=C\c2ccccc2)OC1=O class_assignment=inactive

input: Each compound tested received a call. Report the one for Cc1cc(=O)n(C)c2ccc([N+](=O)[O-])cc12 .
output: inactive

input: Try this compound next: CCC(C)c1ccc(S(=O)(=O)Nc2cc(Cl)c([N+](=O)[O-])cc2O)cc1 (configuration not stated)
output: inactive

input: Thanks! And Cc1cc(OC2OC(CO)C(O)C(O)C2O)ccc1O (configuration not stated) ?
output: inactive

input: Same for O=C(NNC(=O)C(Cl)Cl)c1ccccn1
output: inactive

input: Next entry: O=[N+]([O-])c1cc(Cl)ccc1-c1ccccc1
output: inactive

input: Request: COc1c(CNC(=O)CCl)cc2[nH]c(C)cc2c1CNC(=O)CCl
output: active

input: # iterate: Cc1cc(C)c2nc(N/N=C/c3cccnc3)sc2c1
output: inactive

input: Please do the same for CCOC(=O)c1c(C)n(O)c2ccc(Cl)cc2c1=O as well.
output: inactive

input: Now give it for CC(C)(O)[C@H]1[C@@H]2OC(=O)[C@H]1[C@]1(O)C[C@H]3OC34C(=O)O[C@H]2[C@@]41C (some centres not stated) (tested in a mixture with another compound) too.
output: inactive

input: Next compound up: CC=C/C=C/[C@@H]1O[C@](O)([C@H](CC)C(=O)NC/C=C/C=C(\C)[C@@H](OC)[C@@H](C)[C@@H]2O[C@H](/C=C/C=C/C=C(\C)C(=O)c3c(O)cc[nH]c3=O)[C@H](O)[C@@H]2O)[C@H](O)[C@H](O)C1(C)C
output: inactive

input: Okay, and NC(CSCCSCC(N)C(=O)O)C(=O)O (configuration not stated) ?
output: inactive

input: Then this compound: Nc1c[nH]c2ccccc2c1=O
output: inactive

input: Try the compound CCCCCCCC/C=C\CCCCCCCC(=O)OCC(=O)OC
output: inactive

input: And what about the compound CSc1nc(N)c(C(=O)Nc2cccc3ccccc23)s1 ?
output: inactive

input: Query CCCCC1(CC(=O)OCC)SCCN1C(N)=O (configuration not stated) next
output: inactive

input: And for Cc1cc(C(C)(C)C)ccc1SP(Sc1ccc(C(C)(C)C)cc1C)Sc1ccc(C(C)(C)C)cc1C ?
output: inactive

input: Next: O=C(CBr)N1c2ccccc2Sc2c1ccc1ccccc21
output: inactive

* * *

System: P388 leukemia ip, CD2F1 mice, survival T/C
TEST_SUMMARY: NCI In Vivo Anticancer Drug Screen. Data for tumor model P388 Leukemia (intraperitoneal) in CD2F1 (CDF1) mice
DETAILS: endpoint: median survival time; dose: 12.5 mg/kg/injection; schedule: Q01DX009 (ip); vehicle: saline with Tween-80; higher = longer survival
Inconclusive results and toxic doses are left out.
Property: T/C; scope: individual compounds

Consider the following illustrative entries.
compound="CC1=CCCC2C1(C)CCC(C)C2(C)Cc1cc(O)ccc1O (configuration not stated)" result="100 % of control"
compound="CCCCN(CCCC)CC(O)c1c(Br)c2ccccc2c2ccccc12 (configuration not stated)" result="107 % of control"
compound="c1ccc(C2=NCN3CC23c2ccccc2)cc1 (configuration not stated)" result="98 % of control"

input: Sample Cc1ccc(N=C(SSC(Cl)(Cl)Cl)SSC(Cl)(Cl)Cl)cc1 — what was its T/C?
output: 99 % of control

input: Follow-up entry: CSc1nc(C)c(Br)c(Nc2ccc(C(N)=O)cc2)n1
output: 96 % of control

input: And COc1ccc(OC)c(C=Nc2ccc(S(=O)(=O)Nc3nccc(C)n3)cc2)c1 ?
output: 90 % of control

input: And then CCOC(=O)CC1(O)CCC2C3CC=C4CC(OC5CCCCO5)CCC4(C)C3CCC21C (configuration not stated) , what is it?
output: 88 % of control

input: Next compound up: C[n+]1cccc2c1C(=O)C(=O)c1ncccc1-2
output: 100 % of control

input: Check O=Ic1ccccc1 too.
output: 114 % of control

input: Then NC(=O)c1ccc2c(=O)c(C(=O)O)c[nH]c2c1 ?
output: 95 % of control

input: Repeat with O=C(/C=C/c1ccccc1)c1ccc(O)cc1
output: 109 % of control

input: And what about the compound CCc1c(CC(=O)O)c2cc(C)ccc2n1Cc1ccc(Cl)cc1 ?
output: 95 % of control

* * *

Listing of recorded T/C by entry.
Test system: P388 leukemia ip, CD2F1 mice, survival T/C
TEST_SUMMARY: NCI In Vivo Anticancer Drug Screen. Data for tumor model P388 Leukemia (intraperitoneal) in CD2F1 (CDF1) mice
DETAILS: endpoint: median survival time; dose: 400.0 mg/kg/injection; schedule: Q01DX001 (ip); vehicle: saline with Tween-80; higher = longer survival
Toxic doses and inconclusive results are not listed.

compound=Cc1c(N)c(=O)oc2cc3occc(=O)c3cc12 result="92 % of control"
compound="CC(=O)OC1COC(Nc2cc(=O)n(C)c(=O)[nH]2)C(OC(C)=O)C1OC(C)=O (stereo unspecified)" result="95 % of control"
compound="CCOC(=O)C(C#N)c1cc(O)c(O)c2ccc(O)cc12 (stereo unspecified)" result="106 % of control"
compound=Nc1cc2ccccc2c(Br)n1 result="100 % of control"
compound="CC1=CCCC2C1(C)CCC(C)C2(C)Cc1cc(O)ccc1O (stereo unspecified)" result="88 % of control"

input: Find the recorded T/C belonging to Cc1ccc(NC(=O)CCC(=O)NS(C)(=O)=O)cc1 and report it.
output: 95 % of control

* * *

Tested on: P388 leukemia ip, CD2F1 mice, survival T/C
TEST_SUMMARY: NCI In Vivo Anticancer Drug Screen. Data for tumor model P388 Leukemia (intraperitoneal) in CD2F1 (CDF1) mice
DETAILS: endpoint: median survival time; dose: 50.0 mg/kg/injection; schedule: Q04DX003 (ip); vehicle: saline
Toxic doses and inconclusive results are not listed. The calls were made as follows: active = survival T/C of 150% or more; inactive = T/C below 125% in these data.
Select the matching outcome among y for active, n for inactive

Completed entries (count: 4):
molecule="CC1=CCC2(C)CCC(C(C)C)C2(O)CC1 (stereo not given)" class_assignment=n
molecule=COC(=O)[C@@H]1c2cc3c(c(O)c2[C@@H](OC)C[C@@]1(C)O)C(=O)c1c(O)cc2c(c1C3=O)OC1O[C@@]2(C)[C@H](O)[C@@H](N(C)C)[C@@H]1O class_assignment=y
molecule=COc1ccc(-c2cc3cc(OC)c(OC)cc3c[n+]2C)cc1OC class_assignment=n
molecule="CN(C)C1CC2CCCCC2CC1O (stereo not given)" class_assignment=n

Could you now consider this next molecule?
input: # lookup: test call for CN(C)CCc1ccccn1
output: n

* * *

Collected T/C values appear next to each entry.
Test system: P388 leukemia ip, CD2F1 mice, survival T/C
TEST_SUMMARY: NCI In Vivo Anticancer Drug Screen. Data for tumor model P388 Leukemia (intraperitoneal) in CD2F1 (CDF1) mice
DETAILS: endpoint: median survival time; dose: 100.0 mg/kg/injection; schedule: Q01DX005 (ip); vehicle: Klucel (hydroxypropylcellulose) (HPC); higher = longer survival
Inconclusive results and toxic doses are left out. Peptide text beside a SMILES is read from it. * marks the point of attachment. Cbz = O=C(OCc1ccccc1)*

Examples from the recorded data:
compound=COc1cc2c(cc1OC)C1=[N+](CC2)C2=C(CC1)C(=O)CCC2 target="P388 leukemia ip, CD2F1 mice, survival T/C" result="99 % of control"
compound="Cc1ccc(C)c2c1C(=O)c1ccccc1C2(O)C#Cc1ccccc1 (stereo not drawn)" target="P388 leukemia ip, CD2F1 mice, survival T/C" result="94 % of control"
compound="CCCC(NC(=O)C(C)NC(=O)OCc1ccccc1)C(=O)O (stereo not drawn)" target="P388 leukemia ip, CD2F1 mice, survival T/C" result="96 % of control"
compound=C[Si](C)(C)N1[Si](C)(C)N[Si](C)(C)N([Si](C)(C)F)[Si]1(C)C target="P388 leukemia ip, CD2F1 mice, survival T/C" result="105 % of control"
compound=N/N=C1\C(Cl)=C(Cl)c2ccccc21 target="P388 leukemia ip, CD2F1 mice, survival T/C" result="93 % of control"

input: Suppose we examine the compound CCOC(=O)C1C[S][Sn]2([NH]1)[NH]C(C(=O)OCC)C[S]2 (stereo not drawn) ; what T/C value has been reported?
output: 106 % of control

input: Another: C=C(C)c1nc(N)nc(-c2cccc(-c3nc(N)nc(C(=C)C)n3)c2)n1
output: 99 % of control

input: Note, next up: CC(C)C(NC(=O)C(Cc1ccc(O)cc1)NC(=O)OCc1ccccc1)C(=O)O (stereo not drawn) (Cbz-Tyr-Val-OH; configuration not given here)
output: 100 % of control

input: Repeat with NC(=O)SCCC(=O)Nc1ccccc1
output: 105 % of control

input: Can you check COc1ccc(CCNC(=O)C(Sc2ccccn2)c2ccccc2)cc1OC (stereo not drawn) next?
output: 103 % of control

input: Now try CCOC(=O)c1ccccc1-n1nnc(C#N)c1N .
output: 115 % of control

input: And then O=c1oc2c(ccc3nc(-c4ccccc4)sc32)c(N2CCOCC2)c1Cl , what is it?
output: 91 % of control

input: Queued: O=C1c2ccccc2C(=O)c2c(NCCC3CCCN4CCCCC34)cccc21 (stereo not drawn)
output: 97 % of control
